These data points were gathered from patent US9102688B2.

Hi there, I'd appreciate the recorded log10 of IC50 for every entry that follows.
Target: human ferroportin (Homo sapiens, UniProt Q9NP59)
Sequence (Q9NP59 1-571): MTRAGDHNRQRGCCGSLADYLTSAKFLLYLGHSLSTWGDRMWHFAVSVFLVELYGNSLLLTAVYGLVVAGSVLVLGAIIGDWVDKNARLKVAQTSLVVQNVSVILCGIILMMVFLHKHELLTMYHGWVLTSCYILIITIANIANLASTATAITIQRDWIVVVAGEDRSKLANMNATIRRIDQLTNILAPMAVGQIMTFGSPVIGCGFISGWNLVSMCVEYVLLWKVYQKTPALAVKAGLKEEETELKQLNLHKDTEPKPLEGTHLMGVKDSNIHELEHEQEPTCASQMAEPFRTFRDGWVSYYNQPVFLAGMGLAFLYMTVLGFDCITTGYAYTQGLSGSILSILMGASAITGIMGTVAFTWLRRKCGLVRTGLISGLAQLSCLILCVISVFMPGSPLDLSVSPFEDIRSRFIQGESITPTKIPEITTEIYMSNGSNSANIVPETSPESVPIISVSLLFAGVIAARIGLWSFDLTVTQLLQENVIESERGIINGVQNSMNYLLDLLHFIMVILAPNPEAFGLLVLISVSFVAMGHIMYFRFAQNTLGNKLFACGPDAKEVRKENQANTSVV
Test: ferroportin internalization assay (inhibition of hepcidin-induced internalization of Fpn)
Conditions: MDCK-FPN-HaloTag cells, 100 nM hepcidin, overnight incubation; concentration range from 0.04 to 40 μM
Hi team, quick reminder: these entries are log10 of IC50 (nM).

Known log10 of IC50 results, listed for orientation:
O=S1(=O)Nc2c(cc(Cl)c3cccnc23)-c2cc(N3CCOCC3)ccc21 | 3.21
O=S(=O)(Nc1cccc2cccnc12)c1ccc(Cl)cc1F | 2.94
CC(O)c1cc2c(c3ncccc13)NS(=O)(=O)N(C)C2c1ccc(F)cc1 (stereo not drawn) | 3.37
CN(C)C(=O)c1ccnc2c3c(ccc12)-c1ccccc1S(=O)(=O)N3 | 4.32
Cc1ccc2c(c1)-c1ccc3cccnc3c1NS2(=O)=O | 3.51

State, for human ferroportin (Homo sapiens, UniProt Q9NP59), measured log10 of IC50 of the molecule listed here: CC(=O)c1cc2c(c3ncccc13)NS(=O)(=O)N(C)C2c1ccc(F)cc1 (stereo not drawn)
2.40
